TARGET_SYSTEM: TRKB (Homo sapiens (Human))
Sequence (Q16620 32-822): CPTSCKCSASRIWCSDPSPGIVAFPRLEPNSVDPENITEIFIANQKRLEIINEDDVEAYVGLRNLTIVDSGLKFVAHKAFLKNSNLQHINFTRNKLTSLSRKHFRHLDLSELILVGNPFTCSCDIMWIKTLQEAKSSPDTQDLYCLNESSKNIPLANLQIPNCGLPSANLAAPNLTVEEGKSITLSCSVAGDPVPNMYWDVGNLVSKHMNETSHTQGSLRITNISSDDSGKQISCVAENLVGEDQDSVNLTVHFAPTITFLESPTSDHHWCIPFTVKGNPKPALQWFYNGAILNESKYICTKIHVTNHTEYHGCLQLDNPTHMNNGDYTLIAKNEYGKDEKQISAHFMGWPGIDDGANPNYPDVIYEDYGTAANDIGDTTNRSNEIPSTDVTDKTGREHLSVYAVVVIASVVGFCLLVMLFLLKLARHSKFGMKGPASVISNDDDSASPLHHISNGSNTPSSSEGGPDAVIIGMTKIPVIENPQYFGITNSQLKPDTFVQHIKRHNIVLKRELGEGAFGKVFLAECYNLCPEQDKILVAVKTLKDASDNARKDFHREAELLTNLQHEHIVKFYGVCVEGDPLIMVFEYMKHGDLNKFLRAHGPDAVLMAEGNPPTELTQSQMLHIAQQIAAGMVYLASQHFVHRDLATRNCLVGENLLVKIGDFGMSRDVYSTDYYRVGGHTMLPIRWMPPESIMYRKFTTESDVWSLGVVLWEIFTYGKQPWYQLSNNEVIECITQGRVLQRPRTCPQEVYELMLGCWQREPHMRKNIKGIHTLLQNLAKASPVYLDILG
ASSAY_REMARKS: Inhibitory activity on TRKB (ADP-Glo Kinase Assay)
TEST_SETTINGS: read-out: TRKB IC50; ATP 5 μM
pIC50: −log10 of the molar value.
If the reported pIC50 equals or exceeds 8, assign T. If not, assign F.

Assess whether reported pIC50 for CCc1cc(O)c(F)cc1-c1ccc2c(-c3nc4c([nH]3)CN(C(=O)NCCO)C4)n[nH]c2c1 [MDI-248] sits at 8 or higher. T

Assess whether reported pIC50 for CCc1cc(O)c(F)cc1-c1ccc2c(-c3nc4c([nH]3)CN(C(=O)N(C)C)C4)n[nH]c2c1 [MDI-257] sits at 8 or higher. T

Assess whether reported pIC50 for CCc1cc(O)c(F)cc1-c1ccc2c(-c3nc4c([nH]3)CN(C(=O)C3CC3)C4)n[nH]c2c1 [MDI-1233] sits at 8 or higher. T

Assess whether reported pIC50 for CCc1cc(O)c(F)cc1-c1ccc2c(-c3nc4c([nH]3)CN(S(=O)(=O)C3CC3)C4)n[nH]c2c1 [MDI-218] sits at 8 or higher. F

Assess whether reported pIC50 for CCNC(=O)N1Cc2nc(-c3n[nH]c4cc(-c5cc(F)c(O)cc5CC)ccc34)[nH]c2C1 [MDI-247] sits at 8 or higher. F

Assess whether reported pIC50 for CCOC(=O)N1Cc2nc(-c3n[nH]c4cc(-c5cc(F)c(O)cc5CC)ccc34)[nH]c2C1 [MDI-253] sits at 8 or higher. F
